Below, each entry is listed alongside its reported cell viability.
Test system: Calu-3
Assay comment: cell viability relative to DMSO; higher = less toxic
Condition notes: 72 h; 10 nM

# Compound, Target, cell viability / %
records = [
    ("O=C1c2ccccc2CCC1CNCCc1ccc(O)cc1 (centres undefined)", "Calu-3", 93.3),
    ("CS(=O)(=O)c1ccc([C@@H](CC2CCCC2)C(=O)Nc2nccs2)cc1", "Calu-3", 100),
    ("C=CCN1CCCC1CNC(=O)c1cc2nn[nH]c2cc1OC (centres undefined) [alizapride]", "Calu-3", 91.4),
    ("CC[C@H](C)n1cc(C)c2c(C(=O)NCc3c(C)cc(C)[nH]c3=O)cc(-c3ccc(N4CCNCC4)nc3)cc21", "Calu-3", 102),
]

----------
Tested on: HepG2
Assay comment: cell viability relative to DMSO; higher = less toxic
Condition notes: 72 h; 1 nM
Readout: cell viability

# Compound, Target, Observed measurement
data = [
    ("Cc1cc2c(C(N)=O)cccc2n1-c1nc2c(c(NCc3ccccc3)n1)COCC2", "HepG2", "107%"),
    ("C=CC(C)(O)CCC=C(C)C (centres undefined)", "HepG2", "95.5%"),
    ("Cc1cc(C2CCCCC2)n(O)c(=O)c1", "HepG2", "91.8%"),
    ("COc1ccc(CCO[C@@H]2CCCC[C@H]2N2CC[C@@H](O)C2)cc1OC", "HepG2", "89.2%"),
    ("Cc1c(F)cc(C(=O)NC2CC2)cc1-c1c(F)cn2c(C(C)(C)C)nnc2c1F", "HepG2", "96.5%"),
    ("COc1cc2nc(N3CCC(N4CCCCC4)CC3)nc(NC3CCCCCC3)c2cc1OC", "HepG2", "108%"),
    ("CN1CCC(=C2c3ccccc3Sc3ccccc32)CC1", "HepG2", "108%"),
    ("COc1cc2ncnc(Nc3ccc(F)c(Cl)c3)c2cc1NC(=O)/C=C/CN1CCCCC1", "HepG2", "104%"),
    ("c1ccc2c(c1)CCC[C@H]2Nc1nc2ccccc2[nH]1", "HepG2", "96.8%"),
]

----------
System: Vero E6
Assay comment: cell viability relative to DMSO; higher = less toxic
Condition notes: 72 h; 1000 nM
Where a name gives a salt, the structure may show the parent alone.
Readout: cell viability (%)

# Compound, Readout, Observed measurement
rows = [
    ("COc1ccc2[nH]c3c(-c4cccc5ccccc45)nccc3c2c1", "cell viability", 39.1),
    ("O=C(O)[C@H](O)[C@@H](O)[C@H](O)[C@H](O)CO [sodium-gluconate]", "cell viability", 93.5),
    ("N#Cc1cc2nc(O)c(O)nc2cc1[N+](=O)[O-]", "cell viability", 94.8),
    ("CCOC(=O)[N-]c1c[n+](N2CCOCC2)no1", "cell viability", 96.4),
    ("CN(C)c1cccc(-c2c3c(=O)n(-c4ccccc4Cl)[nH]c3cc(=O)n2C)c1", "cell viability", 102),
    ("CCc1nc(C(N)=O)c(Nc2ccc(N3CCC(N4CCN(C)CC4)CC3)c(OC)c2)nc1NC1CCOCC1", "cell viability", 101),
    ("Nc1ncnc2c1ncn2[C@@H]1O[C@H](C[C@@H](N)CC[C@H](N)C(=O)O)[C@@H](O)[C@H]1O", "cell viability", 104),
    ("CNC(=N)NCCC[C@H](N)C(=O)O", "cell viability", 99.6),
    ("Nc1ccc(C(=O)Nc2cccc(-c3nc(N4CCOCC4)c4oc5ncccc5c4n3)c2)cn1", "cell viability", 95.9),
    ("C=CC(C)(O)CCC=C(C)C (stereo unspecified)", "cell viability", 102),
    ("COc1cc(/C=C/C(N)=O)cc(OC)c1OC [cintriamide]", "cell viability", 90.2),
    ("Cc1cc(NC(=O)Nc2ccc(F)c(F)c2)n(-c2ccccc2)n1", "cell viability", 102),
    ("CCC[C@H](NC(=O)/C(C#N)=C/c1cccc(Br)n1)c1ccccc1", "cell viability", 97.6),
    ("CC(C(=O)O)c1ccc(C(=O)c2cccs2)cc1 (stereo unspecified)", "cell viability", 102),
    ("Clc1ccc(CCCOCCCN2CCCCC2)cc1", "cell viability", 93.2),
    ("Cn1c(=O)c2c(ncn2CCOC(=O)C(C)(C)Oc2ccc(Cl)cc2)n(C)c1=O [etofylline-clofibrate]", "cell viability", 96.1),
    ("NC[C@H]1O[C@H](O[C@H]2[C@H](O[C@@H]3O[C@H](CO)[C@@H](O)[C@H]3O)[C@@H](O)[C@H](N)C[C@@H]2N)[C@H](N)[C@@H](O)[C@@H]1O [ribostamycin-sulfate]", "cell viability", 97.2),
    ("C1=C2CCCN[C@H]2[C@@H]2C[C@H]1[C@H]1CCCCN1C2", "cell viability", 99.4),
    ("CC(C)(C)NCC(O)c1cc(Cl)c(N)c(Cl)c1 (stereo unspecified)", "cell viability", 104),
    ("C[C@]12C=CC(=O)C=C1CC[C@@H]1[C@@H]2[C@@H](O)C[C@@]2(C)[C@H]1CC[C@]2(O)C(=O)COC(=O)CCC(=O)O [prednisolone-hemisuccinate]", "cell viability", 90),
    ("Nc1ccn([C@H]2CO[C@@H](CO)S2)c(=O)n1", "cell viability", 96.4),
    ("CC(C)NCC(O)COc1cccc2ccccc12 (stereo unspecified)", "cell viability", 95.1),
    ("N[C@H](C(=O)O)[C@H](O)c1ccc(O)c(O)c1", "cell viability", 98.5),
    ("O=C(O)C1=C(CSc2nnnn2CS(=O)(=O)O)CS[C@@H]2[C@H](NC(=O)[C@H](O)c3ccccc3)C(=O)N12 [Cefonicid (sodium)]", "cell viability", 99.1),
    ("FC(F)OC(F)(F)C(F)Cl (stereo unspecified)", "cell viability", 104),
    ("C[C@H](N)[C@H](O)c1ccc(O)c(O)c1", "cell viability", 108),
    ("CCCCn1c(-c2ccccc2)nc(-c2ccccc2)c1CN(Cc1ccc2c(c1)OCO2)Cc1ccc2c(c1)OCO2", "cell viability", 101),
    ("Cc1cc(N2CCCCC2)nc2ccccc12", "cell viability", 92.2),
    ("Cc1csc(-c2nnc(Nc3ccc(Oc4ncccc4-c4ccnc(N)n4)cc3)c3ccccc23)c1", "cell viability", 81.7),
    ("CCc1c(C(=O)Nc2cc(S(=O)(=O)N(CC)CC)ccc2O)[nH]c(C)c1C(C)=O", "cell viability", 91.5),
    ("CCOC(=O)[C@H]1O[C@@H]1C(=O)N[C@@H](CC(C)C)C(=O)NCCC(C)C", "cell viability", 102),
    ("CCn1c(=O)[nH]c2cc(Cl)c(Cl)cc21", "cell viability", 99.9),
    ("CN1[C@@H]2CC[C@H]1C[C@@H](OC(=O)C(CO)c1ccccc1)C2 (stereo partly specified) [ATROPINE SULFATE]", "cell viability", 99.4),
    ("CN(C)CCN1C(=O)c2cccc3cc(NC(N)=O)cc(c23)C1=O", "cell viability", 95.1),
    ("CC(C)(C)CC(C)(C)c1cc(Cc2cc(C(C)(C)CC(C)(C)C)cc(-n3nc4ccccc4n3)c2O)c(O)c(-n2nc3ccccc3n2)c1", "cell viability", 98.1),
    ("NCCc1cc(O)c(O)cc1O", "cell viability", 91.5),
]
